target.system: pooled human IgG (human IgG1, 2, 3 and 4)
recorded.endpoint: Enzyme Activity Endpoint Assay (purified): scIgG

Enzyme Activity Endpoint Assay (purified): scIgG measured on PRT-602 (protein) MANQEIRYSEVTPYHITSVWTKGVTPPANFTQGEDVFHAPYVANQGWYDITKTFNGKDDLLCGAATAGNMLHWWFDQNKDQIERYLEEHPEKQKINFNGEQMFDVKEAIDTKDSQTDSKLFEYFKEKAFPYLSTKHLGVFPDHVIDMFINGYRLSLTNHGPTPVKEGSKDPRGGIFDAVFTRGDQSKLLTSRHDFKEKTLKEISDLIKQELTEGKALGLSHTYANVRINHVINLWGADFDSEGNLKAIYVTDSDSNASIGMKKYYVGVNSAGKVAISAKEIEEDNIGAQVLGLFTLSTGQDIWNQTNLEHHHHHH = 212 ng/µL

Next protein, Enzyme Activity Endpoint Assay (purified): scIgG to be filled in.
Enzyme Activity Endpoint Assay (purified): scIgG measured on PRT-549 (protein) MANQEIRYSEDTPSHITSVWTKGVTPPTQFIQNEDVLHAPYIANQGWYDITKTFNGKDDLLCGAATAGNMLHWWFDQNKEQIEAYLKKYPEKQKINFNGEQMFDVKEAIDTKDSQTDSALFNYFKDKAFPYLSTKHLGVFPDHVIDMFINGYRLSLTNHGPTPVKNQTKDPRGGIFDAVFTRGDQSKLLTARHDFKEKTLKEISQLIKQELTEGKALGLSHTYANVRINHVINLWGADFNAEGNLEAIYVTDSDSNASIGMKKYYVGVNAAGKVAISAKEIEGDNIGAQVLGLFTLSTGQDIWQQTNLEHHHHHH = 279 ng/µL
